- TEST SYSTEM: recombinant human KLK5 (human) (UniProt Q9Y337)
- Sequence (Q9Y337 67-293): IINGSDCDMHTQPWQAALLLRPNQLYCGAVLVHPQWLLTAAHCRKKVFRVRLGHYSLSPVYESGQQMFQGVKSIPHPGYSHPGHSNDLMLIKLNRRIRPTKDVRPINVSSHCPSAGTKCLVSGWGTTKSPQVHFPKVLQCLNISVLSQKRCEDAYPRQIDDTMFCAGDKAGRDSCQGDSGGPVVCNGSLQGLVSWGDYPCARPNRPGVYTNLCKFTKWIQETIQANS
- ASSAY NAME: Kiapp assay curve, 0.500 nM KLK5, Z-VPR-pNA
ENDPOINT LABEL: IC50 (read off the curve) (pM)
Output spec: scalar in pM, unitless text.

Example entries begin here.
binder="8B7 (antibody, V domains shown) VH: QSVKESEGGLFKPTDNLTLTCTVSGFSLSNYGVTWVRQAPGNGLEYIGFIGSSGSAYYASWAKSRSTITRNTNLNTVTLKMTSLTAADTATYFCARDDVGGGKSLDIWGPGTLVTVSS VL: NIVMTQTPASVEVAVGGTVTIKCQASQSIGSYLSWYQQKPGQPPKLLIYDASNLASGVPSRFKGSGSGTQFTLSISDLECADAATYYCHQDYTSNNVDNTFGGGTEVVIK" unit_annotation=pM observed_value=200
binder="9H5 (antibody, V domains shown) VH: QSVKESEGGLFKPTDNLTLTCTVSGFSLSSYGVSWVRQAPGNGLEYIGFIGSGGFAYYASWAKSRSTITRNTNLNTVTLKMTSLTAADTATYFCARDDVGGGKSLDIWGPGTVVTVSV VL: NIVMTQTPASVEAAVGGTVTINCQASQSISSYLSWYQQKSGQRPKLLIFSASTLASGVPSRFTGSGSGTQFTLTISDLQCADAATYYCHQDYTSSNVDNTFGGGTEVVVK" unit_annotation=pM observed_value=300
binder="9H3 (antibody, V domains shown) VH: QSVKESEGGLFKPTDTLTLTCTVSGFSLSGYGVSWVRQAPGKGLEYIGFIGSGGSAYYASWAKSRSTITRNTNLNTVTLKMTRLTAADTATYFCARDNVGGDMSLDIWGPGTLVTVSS VL: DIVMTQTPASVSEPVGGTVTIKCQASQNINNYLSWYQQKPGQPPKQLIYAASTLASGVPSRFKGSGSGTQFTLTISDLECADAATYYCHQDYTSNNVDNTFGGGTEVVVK" unit_annotation=pM observed_value=200
binder="3-3F5 (antibody, V domains shown) VH: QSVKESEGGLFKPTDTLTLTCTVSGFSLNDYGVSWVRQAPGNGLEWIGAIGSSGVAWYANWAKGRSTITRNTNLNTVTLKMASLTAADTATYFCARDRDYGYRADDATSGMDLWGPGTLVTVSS VL: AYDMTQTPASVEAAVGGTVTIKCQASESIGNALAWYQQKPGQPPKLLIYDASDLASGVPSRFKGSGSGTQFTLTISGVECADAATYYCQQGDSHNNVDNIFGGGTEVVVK" unit_annotation=pM observed_value=100
binder="10C8 (antibody, V domains shown) VH: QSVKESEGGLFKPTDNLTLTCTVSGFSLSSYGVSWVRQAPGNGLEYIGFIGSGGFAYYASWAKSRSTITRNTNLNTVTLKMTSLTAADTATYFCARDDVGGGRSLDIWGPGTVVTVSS VL: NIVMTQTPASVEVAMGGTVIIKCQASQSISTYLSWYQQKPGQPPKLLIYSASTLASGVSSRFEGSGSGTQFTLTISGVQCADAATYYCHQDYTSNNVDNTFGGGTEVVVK" unit_annotation=pM observed_value=200

IN: Give IC50 (read off the curve) for the following binder: 9F2 (antibody, V domains shown) VH: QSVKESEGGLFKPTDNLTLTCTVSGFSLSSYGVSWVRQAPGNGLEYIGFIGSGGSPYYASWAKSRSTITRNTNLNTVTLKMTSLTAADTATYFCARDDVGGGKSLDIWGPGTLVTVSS VL: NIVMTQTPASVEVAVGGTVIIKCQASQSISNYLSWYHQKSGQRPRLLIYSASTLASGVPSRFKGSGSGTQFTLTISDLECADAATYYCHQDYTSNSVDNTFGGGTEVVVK
OUT: 300
